# measured_on: recombinant caspase-3 (Homo sapiens)
# Sequence (P42574 29-175 limits assumed): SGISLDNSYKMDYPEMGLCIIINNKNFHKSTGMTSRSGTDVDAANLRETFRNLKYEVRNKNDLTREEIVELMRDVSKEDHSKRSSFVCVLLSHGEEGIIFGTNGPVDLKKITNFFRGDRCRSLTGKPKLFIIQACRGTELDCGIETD
# Sequence (P42574 176-277 limits assumed): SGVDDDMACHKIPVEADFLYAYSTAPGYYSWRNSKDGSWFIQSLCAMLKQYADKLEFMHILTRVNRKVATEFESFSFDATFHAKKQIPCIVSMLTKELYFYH
property_name: IC50 (µM)

INSERT INTO results (smiles_data, endpoint_unit, reported) VALUES
  ('O=c1c(O)c(-c2cc(O)c(O)c(O)c2)oc2cc(O)cc(O)c12', 'µM', 25);
